# measured.on: Mitogen-activated protein kinase 1 (Homo sapiens, UniProt P28482)
# Sequence (P28482 whole entry): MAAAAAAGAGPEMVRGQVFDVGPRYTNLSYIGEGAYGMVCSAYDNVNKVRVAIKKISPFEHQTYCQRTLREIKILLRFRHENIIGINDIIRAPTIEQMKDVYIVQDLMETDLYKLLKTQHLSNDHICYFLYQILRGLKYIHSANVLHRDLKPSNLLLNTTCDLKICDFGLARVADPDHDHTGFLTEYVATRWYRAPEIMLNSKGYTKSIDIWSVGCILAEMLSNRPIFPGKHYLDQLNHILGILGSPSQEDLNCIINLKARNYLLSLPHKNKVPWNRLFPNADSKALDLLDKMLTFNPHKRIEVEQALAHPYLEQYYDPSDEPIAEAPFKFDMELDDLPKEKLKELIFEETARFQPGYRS
# experiment.notes: Inhibition of recombinant ERK2 after 60 mins by TR-FRET assay
pIC50: −log10 of the molar value.
attribute.measured: pIC50

The examples below pair each entry with its known result.
>  <molecule>
O=c1n(C2CCNCC2)nc(-c2ccnc(NC3CCOCC3)c2)n1-c1ccc2ccccc2c1

>  <measured.on>
Mitogen-activated protein kinase 1 (Homo sapiens, UniProt P28482)

>  <reading>
< 5.30

$$$$
>  <molecule>
O=c1[nH]nc(-c2ccnc(NC3CC3)c2)n1-c1ccc2ccccc2c1

>  <measured.on>
Mitogen-activated protein kinase 1 (Homo sapiens, UniProt P28482)

>  <reading>
< 4.30

$$$$
>  <molecule>
O=c1[nH]nc(-c2ccnc(NC3CCOCC3)c2)n1-c1ccc2cc(Br)ccc2c1

>  <measured.on>
Mitogen-activated protein kinase 1 (Homo sapiens, UniProt P28482)

>  <reading>
< 4.30

$$$$
>  <molecule>
O=c1[nH]nc(-c2ccnc(Nc3nccs3)c2)n1-c1ccc2ccccc2c1

>  <measured.on>
Mitogen-activated protein kinase 1 (Homo sapiens, UniProt P28482)

>  <reading>
< 4.30

$$$$

# next molecule below
Query string: # input molecule: O=C(Nc1cc(-c2n[nH]c(=O)n2-c2ccc3ccccc3c2)ccn1)C1CC1 ; wanted: its pIC50
Result string: < 4.30

----------
# measured.on: Mitogen-activated protein kinase 9 (Homo sapiens)
# Sequence (P45984 whole entry): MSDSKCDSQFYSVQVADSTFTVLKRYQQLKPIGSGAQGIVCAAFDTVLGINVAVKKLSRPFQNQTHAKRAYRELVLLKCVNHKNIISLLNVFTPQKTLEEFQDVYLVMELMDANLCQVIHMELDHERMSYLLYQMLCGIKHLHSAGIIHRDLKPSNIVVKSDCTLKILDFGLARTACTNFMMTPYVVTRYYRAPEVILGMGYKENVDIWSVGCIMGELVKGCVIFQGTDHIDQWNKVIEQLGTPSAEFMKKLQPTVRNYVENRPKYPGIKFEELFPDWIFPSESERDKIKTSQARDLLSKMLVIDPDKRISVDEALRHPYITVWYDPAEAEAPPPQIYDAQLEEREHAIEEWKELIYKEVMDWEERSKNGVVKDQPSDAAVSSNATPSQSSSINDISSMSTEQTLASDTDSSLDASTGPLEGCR
# experiment.notes: Inhibition of recombinant JNK2 after 60 mins by TR-FRET assay
attribute.measured: IC50 (nM)

The examples below pair each entry with its known result.
>  <molecule>
O=c1n(Cc2ccccn2)nc(-c2ccnc(NC3CCOCC3)c2)n1-c1ccc2ccccc2c1

>  <reading>
93

$$$$
>  <molecule>
O=c1[nH]nc(-c2ccnc(NC3CCCC3)c2)n1-c1ccc2ccccc2c1

>  <reading>
350

$$$$
>  <molecule>
O=c1[nH]nc(-c2ccnc(NC3CCC3)c2)n1-c1ccc2ccccc2c1

>  <reading>
220

$$$$
>  <molecule>
O=c1[nH]nc(-c2ccnc(NC3CC3)c2)n1-c1ccc2ccccc2c1

>  <reading>
390

$$$$
>  <molecule>
O=c1[nH]nc(-c2ccnc(NC3CCOCC3)c2)n1-c1ccc2cccc(Cl)c2c1

>  <reading>
150

$$$$
>  <molecule>
O=c1[nH]nc(-c2ccnc(Nc3nccs3)c2)n1-c1ccc2ccccc2c1

>  <reading>
650

$$$$
>  <molecule>
O=c1[nH]nc(-c2ccnc(NC3CCOCC3)c2)n1-c1ccc2cc(F)ccc2c1

>  <reading>
190

$$$$
>  <molecule>
O=c1[nH]nc(-c2ccnc(Nc3ccccc3)c2)n1-c1ccc2ccccc2c1

>  <reading>
470

$$$$
>  <molecule>
O=c1[nH]nc(-c2ccnc(NC3CCCCC3)c2)n1-c1ccc2ccccc2c1

>  <reading>
69

$$$$
>  <molecule>
O=c1[nH]nc(-c2ccnc(NC3CCOCC3)c2)n1-c1ccc2cccc(F)c2c1

>  <reading>
380

$$$$

I = CCN1CCC(n2nc(-c3ccnc(NC4CCOCC4)c3)n(-c3ccc4ccccc4c3)c2=O)CC1
II = Nc1ccc2cc(-n3c(-c4ccnc(NC5CCOCC5)c4)n[nH]c3=O)ccc2c1
Query string: Kindly identify the item with the lower IC50 figure among these two: I and II Return value: the label identifying the chosen record.
Result string: I

I = O=c1[nH]nc(-c2ccnc(NC3CCCOC3)c2)n1-c1ccc2ccccc2c1 (stereo not given)
II = O=c1[nH]nc(-c2ccncc2)n1-c1ccc2ccccc2c1
Query string: Kindly identify the item with the lower IC50 figure among these two: I and II Return value: the label identifying the chosen record.
Result string: I
(I: 130 nM, II: 32000 nM)

----------
# measured.on: Mitogen-activated protein kinase 8 (Homo sapiens, UniProt P45983)
# Sequence (P45983 whole entry): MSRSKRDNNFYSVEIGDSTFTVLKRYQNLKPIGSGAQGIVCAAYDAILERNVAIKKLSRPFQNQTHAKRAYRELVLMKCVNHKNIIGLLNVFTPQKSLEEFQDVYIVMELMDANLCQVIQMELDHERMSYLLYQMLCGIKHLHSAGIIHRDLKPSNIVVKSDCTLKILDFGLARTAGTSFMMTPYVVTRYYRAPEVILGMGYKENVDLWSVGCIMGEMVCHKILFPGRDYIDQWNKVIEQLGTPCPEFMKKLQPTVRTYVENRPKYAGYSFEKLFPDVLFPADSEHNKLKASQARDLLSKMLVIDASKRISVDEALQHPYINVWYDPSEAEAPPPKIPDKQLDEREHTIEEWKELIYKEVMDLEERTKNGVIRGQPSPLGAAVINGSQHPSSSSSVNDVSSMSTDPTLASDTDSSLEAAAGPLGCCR
# experiment.notes: Inhibition of recombinant JNK1 after 60 mins by TR-FRET assay
pIC50: −log10 of the molar value.
attribute.measured: pIC50

I = O=c1n(C2CCN(CC(F)(F)F)CC2)nc(-c2ccnc(NC3CCOCC3)c2)n1-c1ccc2ccccc2c1
II = O=c1[nH]nc(-c2ccnc(Nc3cccnc3)c2)n1-c1ccc2ccccc2c1
Query string: Endpoint returns the identifier whose pIC50 is numerically larger, either I or II . Return value: the label identifying the chosen record.
Result string: I

a = O=c1[nH]nc(-c2ccnc(NC3CC3)c2)n1-c1ccc2ccccc2c1
b = O=c1n(Cc2ccncc2)nc(-c2ccnc(NC3CCCCC3)c2)n1-c1ccc2ccccc2c1
c = O=c1[nH]nc(-c2ccnc(NC3CCOCC3)c2)n1-c1ccc2ccccc2c1
Query string: Please put the entries in order of rising pIC50. Give me the labels in the order the question wants.
Result string: a, c, b
(a: 5.41, c: 5.74, b: 6.15)

P = O=c1n(-c2ccccn2)nc(-c2ccnc(NC3CCOCC3)c2)n1-c1ccc2ccccc2c1
Q = O=c1[nH]nc(-c2ccnc(NC3CCOCC3)c2)n1-c1ccc2cc(Br)ccc2c1
Query string: Kindly identify the item with the lower pIC50 figure among these two: P and Q Return value: the label identifying the chosen record.
Result string: Q
(Q: 5.38, P: 5.85)

----------
# measured.on: Mitogen-activated protein kinase 14 (Homo sapiens, UniProt Q16539)
# Sequence (Q16539 whole entry): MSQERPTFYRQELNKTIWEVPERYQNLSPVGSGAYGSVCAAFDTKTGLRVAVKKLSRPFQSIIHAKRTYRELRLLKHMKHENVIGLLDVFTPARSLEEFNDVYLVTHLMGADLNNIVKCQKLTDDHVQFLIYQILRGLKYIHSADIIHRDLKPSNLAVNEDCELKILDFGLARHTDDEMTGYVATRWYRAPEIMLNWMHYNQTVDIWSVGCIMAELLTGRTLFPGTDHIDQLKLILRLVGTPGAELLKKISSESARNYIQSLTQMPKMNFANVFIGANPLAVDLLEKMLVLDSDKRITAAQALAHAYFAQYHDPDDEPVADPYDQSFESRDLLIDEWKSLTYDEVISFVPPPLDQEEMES
# experiment.notes: Inhibition of recombinant p38alpha after 60 mins by TR-FRET assay
attribute.measured: IC50

The examples below pair each entry with its known result.
>  <compound>
COC(=O)N1CCC(n2nc(-c3ccnc(NC4CCOCC4)c3)n(-c3ccc4ccccc4c3)c2=O)CC1

>  <attribute.measured>
IC50

>  <reading>
> 50 µM

$$$$
>  <compound>
C[C@H](Nc1cc(-c2n[nH]c(=O)n2-c2ccc3ccccc3c2)ccn1)c1ccccc1

>  <attribute.measured>
IC50

>  <reading>
> 5 µM

$$$$
>  <compound>
O=c1[nH]nc(-c2ccnc(Nc3ccccn3)c2)n1-c1ccc2ccccc2c1

>  <attribute.measured>
IC50

>  <reading>
> 50 µM

$$$$

Query string: # input compound: O=c1n(C2CCOCC2)nc(-c2ccnc(NC3CCCCC3)c2)n1-c1ccc2ccccc2c1 ; wanted: its IC50
Result string: > 50 µM

Query string: # input compound: O=c1[nH]nc(-c2ccnc(NC3CCCOC3)c2)n1-c1ccc2ccccc2c1 (stereo unspecified) ; wanted: its IC50
Result string: > 50 µM

Query string: # input compound: Nc1ccc2cc(-n3c(-c4ccnc(NC5CCOCC5)c4)n[nH]c3=O)ccc2c1 ; wanted: its IC50
Result string: > 50 µM

----------
# measured.on: Mitogen-activated protein kinase 10 (Homo sapiens)
# Sequence (P53779 whole entry): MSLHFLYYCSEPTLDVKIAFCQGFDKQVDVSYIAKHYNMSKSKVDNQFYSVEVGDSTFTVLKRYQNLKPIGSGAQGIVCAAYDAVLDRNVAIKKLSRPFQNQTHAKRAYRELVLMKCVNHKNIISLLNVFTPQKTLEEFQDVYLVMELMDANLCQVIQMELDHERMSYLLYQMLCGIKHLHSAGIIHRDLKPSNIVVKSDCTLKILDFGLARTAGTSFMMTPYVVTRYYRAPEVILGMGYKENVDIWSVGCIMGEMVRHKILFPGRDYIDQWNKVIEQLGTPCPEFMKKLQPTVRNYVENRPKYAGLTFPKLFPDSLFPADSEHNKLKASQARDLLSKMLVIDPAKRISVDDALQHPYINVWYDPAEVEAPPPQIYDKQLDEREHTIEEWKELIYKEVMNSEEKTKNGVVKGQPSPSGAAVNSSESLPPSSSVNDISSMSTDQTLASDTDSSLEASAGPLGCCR
# experiment.notes: Inhibition of recombinant JNK3 after 60 mins by TR-FRET assay
pIC50: −log10 of the molar value.
attribute.measured: pIC50

The examples below pair each entry with its known result.
>  <smiles.structure>
O=c1[nH]nc(-c2ccnc(Nc3ccccn3)c2)n1-c1ccc2ccccc2c1

>  <pIC50>
7.40

$$$$
>  <smiles.structure>
O=C(Nc1cc(-c2n[nH]c(=O)n2-c2ccc3ccccc3c2)ccn1)c1ccccc1

>  <pIC50>
6.23

$$$$
>  <smiles.structure>
O=c1n(-c2ccccn2)nc(-c2ccnc(NC3CCOCC3)c2)n1-c1ccc2ccccc2c1

>  <pIC50>
7.00

$$$$
>  <smiles.structure>
O=c1[nH]nc(-c2ccnc(NC3CCOCC3)c2)n1-c1ccc2cccc(F)c2c1

>  <pIC50>
7.27

$$$$
>  <smiles.structure>
O=c1n(C2CCNCC2)nc(-c2ccnc(NC3CCOCC3)c2)n1-c1ccc2ccccc2c1

>  <pIC50>
6.80

$$$$

A = O=c1[nH]nc(-c2ccnc(NC3CCOCC3)c2)n1-c1ccc2ccccc2c1
B = O=c1[nH]nc(-c2ccnc(Nc3cccnc3)c2)n1-c1ccc2ccccc2c1
Query string: Endpoint returns the identifier whose pIC50 is numerically larger, either A or B . Return value: the label identifying the chosen record.
Result string: A

1 = O=c1n(CC2CCOCC2)nc(-c2ccnc(NC3CCCCC3)c2)n1-c1ccc2ccccc2c1
2 = CCN1CCC(n2nc(-c3ccnc(NC4CCOCC4)c3)n(-c3ccc4ccccc4c3)c2=O)CC1
Query string: Kindly identify the item with the lower pIC50 figure among these two: 1 and 2 Return value: the label identifying the chosen record.
Result string: 2

----------
# measured.on: Mitogen-activated protein kinase 1 (Homo sapiens, UniProt P28482)
# experiment.notes: Inhibition of recombinant ERK2 after 60 mins by TR-FRET assay
attribute.measured: IC50

The examples below pair each entry with its known result.
>  <compound>
O=c1[nH]nc(-c2ccnc(NC3CCCC3)c2)n1-c1ccc2ccccc2c1

>  <IC50>
> 50 µM

$$$$
>  <compound>
O=c1n(C2CCOC2)nc(-c2ccnc(NC3CCOCC3)c2)n1-c1ccc2ccccc2c1 (stereo unspecified)

>  <IC50>
> 50 µM

$$$$
>  <compound>
O=c1[nH]nc(-c2ccnc(NC3CCOCC3)c2)n1-c1ccc2ccccc2c1

>  <IC50>
> 50 µM

$$$$
>  <compound>
O=c1[nH]nc(-c2ccnc(Nc3cccnc3)c2)n1-c1ccc2ccccc2c1

>  <IC50>
14 µM

$$$$
>  <compound>
O=c1[nH]nc(-c2ccnc(NC3CCC3)c2)n1-c1ccc2ccccc2c1

>  <IC50>
> 50 µM

$$$$

# next compound below
Query string: # input compound: O=c1n(CC2CCOCC2)nc(-c2ccnc(NC3CCCCC3)c2)n1-c1ccc2ccccc2c1 ; wanted: its IC50
Result string: > 50 µM
